experimental-system: p65/RelA 1-306 (complete RHD) (human)
experiment: fluorescence thermal shift (SYPRO Orange)
experimental-parameters: apparent KD, two equivalent κB sites considered; 1.5 µM protein; ΔTmax 1.678 °C; Thermal shift: 50 mM Tris-HCl pH 7.5, 225 mM NaCl, 2.25% glycerol, 25 min at 4 °C, then 25-95 °C melt; EMSA: 10 mM Tris-HCl pH 7.5, 0.5 mM EDTA, 65 mM KCl, 5 mM
pKd: −log10 of the molar value.
property-measured: pKd

sequence | result-value
AATTCGGGACTTTCCCGTCGGGACTTTCC (double strand) [2κB dsDNA] | 5.65

###

experimental-system: p50 1-367 (complete RHD) (human)
Sequence: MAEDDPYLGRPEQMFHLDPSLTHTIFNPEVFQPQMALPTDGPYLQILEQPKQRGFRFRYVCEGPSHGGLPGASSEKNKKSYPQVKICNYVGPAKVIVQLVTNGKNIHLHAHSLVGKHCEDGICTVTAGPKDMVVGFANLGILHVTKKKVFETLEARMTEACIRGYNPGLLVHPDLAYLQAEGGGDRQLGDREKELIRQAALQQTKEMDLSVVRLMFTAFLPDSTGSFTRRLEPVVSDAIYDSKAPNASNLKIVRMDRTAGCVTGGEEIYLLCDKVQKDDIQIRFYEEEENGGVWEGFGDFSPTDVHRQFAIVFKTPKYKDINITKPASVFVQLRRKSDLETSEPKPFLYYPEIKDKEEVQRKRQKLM
experiment: fluorescence thermal shift (SYPRO Orange)
experimental-parameters: apparent KD, two equivalent κB sites considered; 1.5 µM protein; ΔTmax 2.462 °C; Thermal shift: 50 mM Tris-HCl pH 7.5, 225 mM NaCl, 2.25% glycerol, 25 min at 4 °C, then 25-95 °C melt; EMSA: 10 mM Tris-HCl pH 7.5, 0.5 mM EDTA, 65 mM KCl, 5 mM

sequence | experimental-system | Kd / nM
AATTCGGGACTTTCCCGTCGGGACTTTCC (double strand) [2κB dsDNA] | p50 1-367 (complete RHD) (human) | 794

Source: paper PMC7840993
